# System: HeLa
# Test details: Antiviral activities in a cell culture HIV-1 infectivity inhibition assay using HeLa cells plus 50% normal human serum
# Type: functional
API: label(entry) gives TRUE if the entry's IC90 is strictly smaller than 30 nM; on equality or larger values it gives FALSE.

>>> print(df.to_string())
                              smiles_string  group
0  CC[C@H](C)[C@H](C(=O)O)N1C[C@H](CN2CCC(c3cc(Cc4cccc5ccccc45)nn3CC)CC2)[C@@H](c2cccc(F)c2)C1   TRUE

## Task Below 30 nM on IC90? Entry CC[C@@H](C)[C@H](C(=O)O)N1C[C@H](CN2CCC(c3cc(Cc4ccc(OC5CCC5)cc4)nn3CC)CC2)[C@@H](c2cccc(F)c2)C1
## Result FALSE

## Task Identify whether the compound CC[C@H](C)[C@H](C(=O)O)N1C[C@H](CN2CCC(c3cc(Cc4ccc(C)cc4)nn3CC)CC2)[C@@H](c2cccc(F)c2)C1 records IC90 below 30 nM.
## Result TRUE

## Task Record CCOc1ccc(Cc2cc(C3CCN(C[C@H]4CN([C@@H](C(=O)O)C(C)C)C[C@@H]4c4cccc(F)c4)CC3)n(CC)n2)cc1 : is its IC90 strictly below 30 nM?
## Result FALSE

----------
# Tested on: HeLa
# Test details: Antiviral activities in a cell culture HIV-1 infectivity inhibition assay using HeLa cells plus 50% normal human serum
# Format: functional
Parameter IC90: see the listing below.
Please give a number only; it is taken to be in nM.

// below: answered compounds
>>> print(df.to_string())
                              smiles_string  result
0  CCn1nc(Cc2ccc(OC(C)(C)C)cc2)cc1C1CCN(C[C@H]2CN([C@@H](C(=O)O)C(C)C)C[C@@H]2c2cccc(F)c2)CC1     100
1  CCn1nc(Cc2cccc(C#N)c2)cc1C1CCN(C[C@H]2CN([C@@H](C(=O)O)C(C)(C)C)C[C@@H]2c2cccc(F)c2)CC1      11

Next compound, please.
Recorded IC90 (compound CCn1nc(Cc2cccc(F)c2)cc1C1CCN(C[C@H]2CN([C@@H](C(=O)O)C(C)C)C[C@@H]2c2cccc(F)c2)CC1 ): 300

----------
# Test details: in vivo
# Measurement setup: rat
As shown below, each of these compounds has a reported bioavailability value.
Your answer should be a plain number; it is taken to be in %.

Known results for compounds:
>>> df
                              smiles_string    quantity_kind  result
0  CCn1nc(Cc2ccc(OC(C)C)cc2)cc1C1CCN(C[C@H]2CN([C@@H](C(=O)O)C(C)(C)C)C[C@@H]2c2cccc(F)c2)CC1  bioavailability      49
1  CC[C@H](C)[C@H](C(=O)O)N1C[C@H](CN2CCC(c3cc(Cc4ccc(OC(C)(C)C)cc4)nn3CC)CC2)[C@@H](c2cccc(F)c2)C1  bioavailability      76
2  CC[C@@H](C)[C@H](C(=O)O)N1C[C@H](CN2CCC(c3cc(Cc4ccc(C#N)cc4)nn3CC)CC2)[C@@H](c2cccc(F)c2)C1  bioavailability     3.1
3  CCCCOc1ccc(Cc2cc(C3CCN(C[C@H]4CN([C@@H](C(=O)O)[C@@H](C)CC)C[C@@H]4c4cccc(F)c4)CC3)n(CC)n2)cc1  bioavailability      22
4  CC[C@H](C)[C@H](C(=O)O)N1C[C@H](CN2CCC(c3cc(Cc4ccc(C(C)C)cc4)nn3CC)CC2)[C@@H](c2cccc(F)c2)C1  bioavailability      19

Let us examine a further case.
The compound listed as CCOc1ccc(Cc2cc(C3CCN(C[C@H]4CN([C@@H](C(=O)O)C(C)(C)C)C[C@@H]4c4cccc(F)c4)CC3)n(CC)n2)cc1 has a reported bioavailability of 68
